Kindly supply the reported pIC50 values for the records listed here.
- target: T1, recombinant human TL1A (human, UniProt O95150 71-251)
- T1 construct: homotrimer; biotinylated for SPR capture; the ELISA paragraphs say only 'recombinant TL1A'; also called TNFSF15
- T1 chain: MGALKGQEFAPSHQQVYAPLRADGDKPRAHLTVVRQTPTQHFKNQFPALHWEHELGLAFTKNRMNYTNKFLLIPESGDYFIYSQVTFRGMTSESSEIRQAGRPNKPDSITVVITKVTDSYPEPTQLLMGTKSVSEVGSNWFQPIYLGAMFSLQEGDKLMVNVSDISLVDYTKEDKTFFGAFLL
- assay details: competition ELISA vs bio-TL1A-0002
Just so you know, pIC50 here is -log10 of the concentration in molar units; reply with that number alone.

-- ask Which pIC50 reading was recorded for the binder TL1A-0082 (antibody, IgG1, V domains shown, IgG1/kappa variant of TL1A-0002) VH: QVQLVQSGAEVKKPGASVKVSCKASGYDFTYYGISWVRQAPGQGLEWMGWISAYNGNTHYAQKLQGRVTMTTDTSTRTAYMELRSLRSDDTAVYYCARENYYGSGAYRGGMDVWGQGTTVTVSS VL: EIVLTQSPATLSLSPGERATLSCRASQSVSSYLAWYQQKPGQAPRLLIYDASNRATGIPARFSGSGSGTDFTLTISSLEPEDFAVYYCQQRSNWPWTFGQGTKVEIKR ?
-- reply 8.28

-- ask And what about the binder TL1A-0063 (antibody, IgG1, V domains shown, IgG1/kappa variant of TL1A-0002) VH: QVQLVQSGAEVKKPGASVKVSCKASGYDFSYYGISWVRQAPGQGLEWMGWISTYNGNTHYARMLQGRVTMTTDTSTRTAYMELRSLRSDDTAVYYCARENYYGSGAYRGGMDVWGQGTTVTVSS VL: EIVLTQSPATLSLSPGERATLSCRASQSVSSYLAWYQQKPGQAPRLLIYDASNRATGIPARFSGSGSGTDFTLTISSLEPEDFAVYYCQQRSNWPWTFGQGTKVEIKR ?
-- reply 8.39

-- ask And what about the binder TL1A-0083 (antibody, IgG1, V domains shown, IgG1/kappa variant of TL1A-0002) VH: QVQLVQSGAEVKKPGASVKVSCKASGYDFTYYGISWVRQAPGQGLEWMGWISTYGGNTHYAQKLQGRVTMTTDTSTRTAYMELRSLRSDDTAVYYCARENYYGSGAYRGGMDVWGQGTTVTVSS VL: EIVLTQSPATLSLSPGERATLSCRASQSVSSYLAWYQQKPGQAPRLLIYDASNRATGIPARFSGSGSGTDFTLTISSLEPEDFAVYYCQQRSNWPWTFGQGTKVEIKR ?
-- reply 8.17

-- ask And what about the binder TL1A-0090 (antibody, IgG1, V domains shown, IgG1/kappa variant of TL1A-0002) VH: QVQLVQSGAEVKKPGASVKVSCKASGYDFTYYGISWVRQAPGQGLEWMGWISTYNTGTHYAPSLQGRVTMTTDTSTRTAYMELRSLRSDDTAVYYCARENYYGSGAYRGGMDVWGQGTTVTVSS VL: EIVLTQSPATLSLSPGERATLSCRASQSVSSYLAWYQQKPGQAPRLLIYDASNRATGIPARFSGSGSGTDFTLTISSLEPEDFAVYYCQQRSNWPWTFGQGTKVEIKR ?
-- reply 8.35

-- ask And what about the binder TL1A-0195 (antibody, IgG1, V domains shown, IgG1/kappa variant of TL1A-0002) VH: QVQLVQSGAEVKKPGASVKVSCKASGYDFTYYGISWVRQAPGQGLEWMGWISTYNGNTHYARMLQGRVTMTTDTSTRTAYMELRSLRSDDTAVYYCAREQYYGSGAHRGGMDVWGQGTTVTVSS VL: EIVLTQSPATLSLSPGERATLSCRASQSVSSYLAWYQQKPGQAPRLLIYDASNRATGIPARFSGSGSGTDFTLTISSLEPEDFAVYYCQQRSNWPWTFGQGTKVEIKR ?
-- reply 8.09

-- ask And what about the binder TL1A-0097 (antibody, IgG1, V domains shown, IgG1/kappa variant of TL1A-0002) VH: QVQLVQSGAEVKKPGASVKVSCKASGYDFTYYGISWVRQAPGQGLEWMGWISTYNGNTHYARMLQGRVTMTTDTSTRTAYMELRSLRSDDTAVYYCAREQYYGSGAYRGGMDVWGQGTTVTVSS VL: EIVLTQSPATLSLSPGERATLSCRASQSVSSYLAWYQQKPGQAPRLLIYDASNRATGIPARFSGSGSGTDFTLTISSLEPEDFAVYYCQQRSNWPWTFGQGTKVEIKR ?
-- reply 8.00

-- ask And what about the binder TL1A-0061 (antibody, IgG1, V domains shown, IgG1/kappa variant of TL1A-0002) VH: QVQLVQSGAEVKKPGASVKVSCKASGFDFTYYGISWVRQAPGQGLEWMGWISTYNGNTHYARMLQGRVTMTTDTSTRTAYMELRSLRSDDTAVYYCARENYYGSGAYRGGMDVWGQGTTVTVSS VL: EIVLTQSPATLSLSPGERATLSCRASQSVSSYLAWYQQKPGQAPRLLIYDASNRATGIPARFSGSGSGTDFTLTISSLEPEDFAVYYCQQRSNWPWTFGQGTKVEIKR ?
-- reply 8.34

-- ask And what about the binder TL1A-0197 (antibody, IgG1, V domains shown, IgG1/kappa variant of TL1A-0002) VH: QVQLVQSGAEVKKPGASVKVSCKASGYDFTYYGISWVRQAPGQGLEWMGWISTYNGNTHYARMLQGRVTMTTDTSTRTAYMELRSLRSDDTAVYYCARESYYGSGAFRGGMDVWGQGTTVTVSS VL: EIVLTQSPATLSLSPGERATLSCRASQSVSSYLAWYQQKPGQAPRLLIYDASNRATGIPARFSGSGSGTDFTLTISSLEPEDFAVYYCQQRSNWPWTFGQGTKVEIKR ?
-- reply 8.06

-- ask And what about the binder TL1A-0089 (antibody, IgG1, V domains shown, IgG1/kappa variant of TL1A-0002) VH: QVQLVQSGAEVKKPGASVKVSCKASGYDFTYYGISWVRQAPGQGLEWMGWISTYNTGTHYAQKLQGRVTMTTDTSTRTAYMELRSLRSDDTAVYYCARENYYGSGAYRGGMDVWGQGTTVTVSS VL: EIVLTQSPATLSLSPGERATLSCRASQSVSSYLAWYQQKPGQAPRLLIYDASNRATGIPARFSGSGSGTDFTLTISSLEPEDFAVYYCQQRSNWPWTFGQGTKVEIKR ?
-- reply 8.27

-- ask And what about the binder TL1A-0023 (antibody, IgG1, V domains shown, IgG1/kappa variant of TL1A-0002) VH: QVQLVQSGAEVKKPGASVKVSCKASGYDFTYYGISWVRQAPGQGLEWMGWISTYNGNDHYAPSLQGRVTMTTDTSTRTAYMELRSLRSDDTAVYYCARENYYGSGAYRGGMDVWGQGTTVTVSS VL: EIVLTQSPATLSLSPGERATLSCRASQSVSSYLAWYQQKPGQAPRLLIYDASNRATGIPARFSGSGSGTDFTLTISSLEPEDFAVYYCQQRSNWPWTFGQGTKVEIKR ?
-- reply 8.25
